Reference source: patent EP0977755B1

# system_name: m1 muscarinic receptor (Rattus norvegicus)
# Construct: expressed in transfected cells; host or cells: A9 L cells (mouse fibroblast line)
# protocol: IP hydrolysis in A9 L cells cloned with the genetic m1 muscarinic receptor
# Format: cell-based, human and rat
# protocol_conditions: IP hydrolysis, seven point curves, three separate experiments, read-out: EC50
pEC50: −log10 of the molar value.
Rule: criterion met for pEC50 not less than 8, criterion not met for anything less.

* COc1cccc(C#CCOc2nsnc2[C@H]2CN3CCC[C@H]2C3)c1 | criterion met

State whether the measured pEC50 reaches 8, counting equality as reaching it, for C(#Cc1cccs1)CSc1nsnc1[C@@H]1CN2CCC[C@H]1C2
criterion not met

Another: Fc1ccc(C#CCOc2nsnc2[C@@H]2CN3CCC[C@H]2C3)cc1
criterion not met

Another compound: Fc1ccc(C#CCOc2nsnc2[C@H]2CN3CC[C@@H]2C3)cc1 (single isomer, unassigned) [Compound 9]
criterion not met

Try the compound Fc1cccc(C#CCSc2nsnc2[C@@H]2CN3CCC[C@H]2C3)c1
criterion not met

Okay, and C(#Cc1ccccc1)COc1nsnc1[C@@H]1CN2CCC[C@H]1C2 ?
criterion not met

Do the same for C(#Cc1cccs1)COc1nsnc1[C@H]1CN2CCC[C@H]1C2 please
criterion met

Moving on to the next compound: C(#Cc1cccs1)COc1nsnc1[C@H]1CN2CC[C@@H]1C2 (single isomer, unassigned)
criterion not met

---

# system_name: m1 muscarinic receptor (Rattus norvegicus, UniProt P08482)
# Construct: expressed in transfected cells; host or cells: A9 L cells (mouse fibroblast line)
# Sequence (P08482 1-460): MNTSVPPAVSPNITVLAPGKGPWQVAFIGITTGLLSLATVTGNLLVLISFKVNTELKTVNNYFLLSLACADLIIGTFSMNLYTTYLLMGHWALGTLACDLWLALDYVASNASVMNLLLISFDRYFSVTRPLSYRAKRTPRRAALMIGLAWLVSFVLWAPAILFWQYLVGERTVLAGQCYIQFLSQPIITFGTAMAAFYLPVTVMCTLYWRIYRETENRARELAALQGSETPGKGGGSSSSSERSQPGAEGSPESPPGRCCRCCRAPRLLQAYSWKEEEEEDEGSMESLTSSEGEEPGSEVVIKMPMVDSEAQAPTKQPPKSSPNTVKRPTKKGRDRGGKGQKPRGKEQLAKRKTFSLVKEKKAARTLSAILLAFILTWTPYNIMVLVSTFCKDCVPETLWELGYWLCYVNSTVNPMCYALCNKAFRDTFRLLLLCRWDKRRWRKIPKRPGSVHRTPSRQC
# protocol: IP hydrolysis in A9 L cells cloned with the genetic m1 muscarinic receptor
# Format: cell-based, human and rat
# protocol_conditions: A9L-m1, 0.75 h, percentage of total [3H]IP accumulated in the presence of 100 µM carbachol stimulation, 37°C for 45 min, read-out: % PI (efficacy)
readout_name: Emax (%)
Only the number, expressed in %, is required.

* COc1cccc(C#CCOc2nsnc2[C@H]2CN3CCC[C@H]2C3)c1 | 100
* COc1cccc(C#CC(Oc2nsnc2[C@H]2CN3CCC[C@H]2C3)C(C)C)c1 (some centres unmarked) | 66
* C(#Cc1ccccc1)CSc1nsnc1[C@@H]1CN2CCC[C@H]1C2 | 98

Continue with the molecule presented below.
May I ask what Emax has been recorded for C(#Cc1ccsc1)COc1nsnc1[C@H]1CN2CC[C@@H]1C2 (single isomer, unassigned) ?
108

---

# system_name: m1 muscarinic receptor (Rattus norvegicus)
# Construct: expressed in transfected cells; host or cells: A9 L cells (mouse fibroblast line)
# protocol: IP hydrolysis in A9 L cells cloned with the genetic m1 muscarinic receptor
# Format: cell-based, human and rat
# protocol_conditions: A9L-m1, 0.75 h, percentage of total [3H]IP accumulated in the presence of 100 µM carbachol stimulation, 37°C for 45 min, read-out: % PI (efficacy)
readout_name: Emax
Respond with a number, then the unit of measure.

- FC(F)(F)c1cccc(C#CCOc2nsnc2[C@H]2CN3CCC[C@H]2C3)c1: 99%
- C(#Cc1ccsc1)COc1nsnc1[C@H]1CN2CCC[C@H]1C2: 101%
- C(#Cc1cccs1)CSc1nsnc1[C@@H]1CN2CCC[C@H]1C2: 69%
- C(#Cc1cccs1)COc1nsnc1[C@H]1CN2CC[C@@H]1C2 (single isomer, unassigned): 91%

Identify the measured Emax of C(#Cc1ccccc1)COc1nsnc1[C@H]1CN2CC[C@@H]1C2 (racemic) [Compound 1] for m1 muscarinic receptor (Rattus norvegicus).
80%

Can you handle Fc1cccc(C#CCSc2nsnc2[C@@H]2CN3CCC[C@H]2C3)c1 next?
67%

Try this molecule next: C(#Cc1ccsc1)CSc1nsnc1[C@@H]1CN2CCC[C@H]1C2
105%

Here is the next molecule: Fc1ccc(C#CCOc2nsnc2[C@H]2CN3CC[C@@H]2C3)cc1 (racemic) [Compound 2]
74%

Subsequent entry: CC(C#Cc1cccs1)Oc1nsnc1[C@H]1CN2CCC[C@H]1C2 (stereo partly shown)
102%

Moving on to the next molecule: Fc1ccc(C#CCOc2nsnc2[C@H]2CN3CC[C@@H]2C3)cc1 (single isomer, unassigned) [Compound 3]
81%

---

# system_name: m1 muscarinic receptor (Rattus norvegicus)
# Construct: expressed in transfected cells; host or cells: A9 L cells (mouse fibroblast line)
# protocol: IP hydrolysis in A9 L cells cloned with the genetic m1 muscarinic receptor
# Assay type: cell-based, human and rat
# protocol_conditions: IP hydrolysis, seven point curves, three separate experiments, read-out: EC50
pEC50: −log10 of the molar value.
Grouping key: pEC50. Bins: bottom = under 7, middle = from 7 up to 8, top = 8 and over

Field: example entries. Status: answers known.
- C(#Cc1ccccc1)COc1nsnc1[C@H]1C[N@@]2CCC[C@H]1C2: top
- Clc1ccc(C#CCOc2nsnc2[C@H]2CN3CCC[C@H]2C3)cc1: middle

Where would COc1cccc(C#CCOc2nsnc2[C@@H]2CN3CCC[C@H]2C3)c1 land among the classes by reported pEC50?
middle

Next up: C(#Cc1ccccc1)CSc1nsnc1[C@H]1C[N@@]2CCC[C@H]1C2
top

Entry C(#Cc1ccsc1)COc1nsnc1[C@@H]1CN2CCC[C@H]1C2.O=C(O)C(O)C(O)C(=O)O please
middle

Next molecule: C(#Cc1ccccc1)CSc1nsnc1[C@@H]1CN2CCC[C@H]1C2
top

Another molecule to check: C(#Cc1ccsc1)COc1nsnc1[C@H]1CN2CC[C@@H]1C2 (single isomer, unassigned)
bottom

Now consider COc1cccc(C#CCOc2nsnc2[C@H]2CN3CC[C@@H]2C3)c1 (single isomer, unassigned) [Compound 5] and answer again.
middle

How about this molecule: Fc1ccc(C#CCOc2nsnc2C2CN3CCC2CC3)cc1 (racemic)
bottom

And the next one, C(#Cc1ccccc1)COc1nsnc1C1CN2CCC1C2 (racemic) ?
top

---

We begin with a simple list: items and their reported Emax.
# system_name: m1 muscarinic receptor (Rattus norvegicus, UniProt P08482)
# Construct: expressed in transfected cells; host or cells: A9 L cells (mouse fibroblast line)
# protocol: IP hydrolysis in A9 L cells cloned with the genetic m1 muscarinic receptor
# Format: cell-based, human and rat
# protocol_conditions: A9L-m1, 0.75 h, percentage of total [3H]IP accumulated in the presence of 100 µM carbachol stimulation, 37°C for 45 min, read-out: % PI (efficacy)
Kindly provide the numeric value in % only, without the unit symbol.

Given COc1cccc(C#CC(C)Oc2nsnc2[C@H]2CN3CCC[C@H]2C3)c1 (stereo partly shown) , state its recorded Emax.
85

And Fc1ccc(C#CCOc2nsnc2[C@@H]2CN3CCC[C@H]2C3)cc1 ?
79

Now the molecule C(#Cc1ccccc1)CSc1nsnc1[C@H]1C[N@@]2CCC[C@H]1C2
105

What do you get for COc1cccc(C#CCOc2nsnc2[C@@H]2CN3CCC[C@H]2C3)c1 ?
97

Proceed to Clc1ccc(C#CCOc2nsnc2[C@H]2CN3CCC[C@H]2C3)cc1
81

---

# system_name: m1 muscarinic receptor (Rattus norvegicus, UniProt P08482)
# Construct: expressed in transfected cells; host or cells: A9 L cells (mouse fibroblast line)
# protocol: IP hydrolysis in A9 L cells cloned with the genetic m1 muscarinic receptor
# Assay type: cell-based, human and rat
# protocol_conditions: IP hydrolysis, seven point curves, three separate experiments, read-out: EC50
readout_name: pEC50
The scale used: pEC50 is minus the common logarithm of the concentration in molar units.

* COc1cccc(C#CCOc2nsnc2[C@H]2CN3CC[C@@H]2C3)c1 (single isomer, unassigned) [Compound 10] | 7.12
* CC(C#Cc1cccs1)Oc1nsnc1[C@H]1CN2CCC[C@H]1C2 (some centres unmarked) | 6.99

Now look at this entry.
Form field: reported pEC50 of CC(C)C(C#Cc1ccsc1)Oc1nsnc1C1CN2CCC1C2 (mixture of isomers)
7.85

---

# system_name: m1 muscarinic receptor (Rattus norvegicus)
# Construct: expressed in transfected cells; host or cells: A9 L cells (mouse fibroblast line)
# protocol: IP hydrolysis in A9 L cells cloned with the genetic m1 muscarinic receptor
# Format: cell-based, human and rat
# protocol_conditions: A9L-m1, 0.75 h, percentage of total [3H]IP accumulated in the presence of 100 µM carbachol stimulation, 37°C for 45 min, read-out: % PI (efficacy)
readout_name: Emax (%)
The reply should be a number in %, with the unit left off.

# annotated cases, reported Emax shown
• CC(C#Cc1ccsc1)Oc1nsnc1[C@H]1CN2CCC[C@H]1C2 (some centres unmarked) = 96
• C(#Cc1ccccc1)COc1nsnc1C1CN2CCC1C2 (racemic) = 100
• C(#Cc1cccs1)COc1nsnc1[C@H]1CN2CCC[C@H]1C2 = 100

# Emax lookup, item COc1cccc(C#CCOc2nsnc2[C@H]2CN3CC[C@@H]2C3)c1 (single isomer, unassigned)
57

Same for C(#Cc1ccccc1)COc1nsnc1[C@H]1CN2CC[C@@H]1C2 (single isomer, unassigned) [Compound 11]
64

Now consider CC(C)C(C#Cc1ccsc1)Oc1nsnc1C1CN2CCC1C2 (mixture of isomers) and answer again.
56

Now consider C(#Cc1ccccc1)COc1nsnc1[C@@H]1CN2CCC[C@H]1C2 .
93

Item: C(#Cc1ccccc1)COc1nsnc1[C@H]1C[N@@]2CCC[C@H]1C2
102
